System: THRa:RXRa (NR concentration 90 nM, RXRa partner concentration 90 nM)
Assay: PBM binding z-score (relative to random genomic background probes); higher = stronger binding; sequences stand for … in GC…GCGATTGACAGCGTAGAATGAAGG
Tick satisfied if PBM binding z-score is 2 or greater. Tick not satisfied if PBM binding z-score is less than 2.

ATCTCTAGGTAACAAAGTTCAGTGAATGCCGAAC | not satisfied
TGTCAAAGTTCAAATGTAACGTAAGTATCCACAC | satisfied
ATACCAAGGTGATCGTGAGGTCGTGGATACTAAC | satisfied
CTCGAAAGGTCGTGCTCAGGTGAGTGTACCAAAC | satisfied

[Q] Check the entry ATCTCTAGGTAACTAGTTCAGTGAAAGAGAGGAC : does PBM binding z-score equal or exceed 2?
[A] not satisfied

[Q] Threshold query (PBM binding z-score >= 2) on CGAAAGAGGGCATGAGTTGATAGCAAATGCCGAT
[A] not satisfied

[Q] Threshold query (PBM binding z-score >= 2) on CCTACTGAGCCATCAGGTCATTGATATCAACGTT
[A] satisfied

[Q] Determine whether this sequence has PBM binding z-score no lower than 2: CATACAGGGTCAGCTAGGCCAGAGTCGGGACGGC
[A] satisfied

[Q] Form field: PBM binding z-score at least 2? Entry: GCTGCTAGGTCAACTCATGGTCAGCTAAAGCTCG
[A] satisfied

====

System: THRa homodimer (NR concentration 90 nM)
Experiment: PBM binding z-score (relative to random genomic background probes); higher = stronger binding; sequences stand for … in GC…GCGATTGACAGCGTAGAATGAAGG
# PBM binding z-score values compiled below
Number only, no unit.

These solved cases illustrate the format of a correct answer.
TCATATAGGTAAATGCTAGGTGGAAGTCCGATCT | -0.18
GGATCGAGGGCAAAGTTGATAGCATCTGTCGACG | -0.165
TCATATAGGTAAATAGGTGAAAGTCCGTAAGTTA | 0.0399
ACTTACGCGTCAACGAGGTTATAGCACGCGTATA | 0.379
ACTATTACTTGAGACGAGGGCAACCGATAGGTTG | 1.02

[Q] Dear colleague, I am looking for the recorded PBM binding z-score of the following sequence: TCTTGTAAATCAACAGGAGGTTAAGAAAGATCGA
[A] -0.242

[Q] // returns reported PBM binding z-score for input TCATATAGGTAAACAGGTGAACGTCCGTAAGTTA
[A] 0.353

[Q] Entry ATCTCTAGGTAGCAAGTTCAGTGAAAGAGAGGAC has what PBM binding z-score?
[A] 0.46

[Q] Reported PBM binding z-score, sequence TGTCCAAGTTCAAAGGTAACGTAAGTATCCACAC : ____
[A] 0.0637

[Q] Value lookup for PBM binding z-score; key = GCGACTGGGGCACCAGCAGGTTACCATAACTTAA
[A] -0.0837

[Q] What PBM binding z-score value was documented for this sequence, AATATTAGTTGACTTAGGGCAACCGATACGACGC ?
[A] 0.572

[Q] Please give the measured PBM binding z-score for this sequence: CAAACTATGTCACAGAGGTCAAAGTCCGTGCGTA
[A] 1.89

====

Test system: RXRa homodimer (NR concentration 180 nM)
Test: PBM binding z-score (relative to random genomic background probes); higher = stronger binding; sequences stand for … in GC…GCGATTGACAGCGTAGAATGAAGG
OUTCOME MEASURE: PBM binding z-score
Answer with a bare number; do not write a unit.

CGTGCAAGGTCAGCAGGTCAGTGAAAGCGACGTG | 5.2

[Q] Data request, read-out PBM binding z-score, for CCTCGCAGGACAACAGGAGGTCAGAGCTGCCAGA
[A] 1.86

[Q] May I ask what PBM binding z-score has been recorded for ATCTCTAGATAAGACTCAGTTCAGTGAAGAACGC ?
[A] -0.154

[Q] For the sequence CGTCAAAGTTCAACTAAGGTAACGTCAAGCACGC , what PBM binding z-score is on record?
[A] 4.81

[Q] Using the record for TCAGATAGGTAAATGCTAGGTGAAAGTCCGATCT , report its PBM binding z-score.
[A] 0.464

====

System: THRa:RXRa (NR concentration 90 nM, RXRa partner concentration 90 nM)
Experiment: PBM binding z-score (relative to random genomic background probes); higher = stronger binding; sequences stand for … in GC…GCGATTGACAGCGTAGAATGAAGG
Decide by PBM binding z-score: equal to or exceeding 2 means true (1), less means false (0).

Study these solved cases before continuing.
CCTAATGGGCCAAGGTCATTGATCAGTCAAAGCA | true (1)
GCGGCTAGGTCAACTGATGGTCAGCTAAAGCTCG | true (1)
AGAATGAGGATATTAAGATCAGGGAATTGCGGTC | false (0)

[Q] Does the sequence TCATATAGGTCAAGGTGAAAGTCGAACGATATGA have recorded PBM binding z-score that is 2 or more?
[A] true (1)

[Q] Does PBM binding z-score meet or surpass 2 for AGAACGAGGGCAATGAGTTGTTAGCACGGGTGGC ?
[A] false (0)

[Q] Threshold query (PBM binding z-score >= 2) on ATTACAGGGTCACTAGGCCAGAGTAGGTACGAAT
[A] true (1)

[Q] Does PBM binding z-score meet or surpass 2 for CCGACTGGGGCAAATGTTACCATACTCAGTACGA ?
[A] false (0)

====

Tested on: THRa homodimer (NR concentration 90 nM)
Assay: PBM binding z-score (relative to random genomic background probes); higher = stronger binding; sequences stand for … in GC…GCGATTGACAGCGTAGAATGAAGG
OUTCOME MEASURE: PBM binding z-score
# answer = number (no unit)

Recorded PBM binding z-score, per entry:
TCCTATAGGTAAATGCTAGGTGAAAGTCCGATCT | 0.305
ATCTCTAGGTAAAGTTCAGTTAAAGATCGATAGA | 0.842
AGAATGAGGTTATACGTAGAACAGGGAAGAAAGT | 0.323
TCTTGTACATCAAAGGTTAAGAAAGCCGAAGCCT | -0.039
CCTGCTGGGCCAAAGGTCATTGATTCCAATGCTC | 0.638

[Q] Report PBM binding z-score for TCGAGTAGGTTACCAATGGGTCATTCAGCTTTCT please.
[A] -0.434

====

System: PPARg:RXRa 30nM:10nM, anti-RXR (NR concentration 30 nM, RXRa partner concentration 10 nM)
Test: PBM binding z-score (relative to random genomic background probes); higher = stronger binding; sequences stand for … in GC…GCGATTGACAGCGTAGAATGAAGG
// bucketize PBM binding z-score: 1: < 1; 2: ≥ 1 and < 4; 3: ≥ 4

A selection of reference data follows.
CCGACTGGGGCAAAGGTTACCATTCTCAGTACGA | 3
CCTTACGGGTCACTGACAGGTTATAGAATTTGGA | 2
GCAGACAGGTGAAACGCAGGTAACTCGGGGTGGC | 1

[Q] Lab note: which band did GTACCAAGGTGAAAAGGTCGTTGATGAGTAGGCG land in?
[A] 2

[Q] Exercise: read the entry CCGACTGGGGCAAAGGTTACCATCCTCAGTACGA and state which class it falls under.
[A] 3

[Q] Which bin, given its PBM binding z-score, does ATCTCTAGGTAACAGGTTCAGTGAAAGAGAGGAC occupy?
[A] 2

[Q] Bin this entry: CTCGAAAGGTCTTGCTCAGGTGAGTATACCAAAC
[A] 1

[Q] Category lookup for the sequence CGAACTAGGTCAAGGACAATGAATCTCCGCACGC
[A] 3

[Q] Lab log: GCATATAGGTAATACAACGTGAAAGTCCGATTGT — assign PBM binding z-score category
[A] 1

[Q] Category of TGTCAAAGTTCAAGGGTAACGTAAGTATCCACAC , please.
[A] 3

====

Measured PBM binding z-score, listed per entry for reference.
Test system: LXRa:RXRa (NR concentration 270 nM, RXRa partner concentration 90 nM)
Experiment: PBM binding z-score (relative to random genomic background probes); higher = stronger binding; sequences stand for … in GC…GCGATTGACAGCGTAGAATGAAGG

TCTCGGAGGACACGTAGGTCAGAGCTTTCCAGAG | 0.395
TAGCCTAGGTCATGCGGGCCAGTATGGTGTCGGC | 3.27
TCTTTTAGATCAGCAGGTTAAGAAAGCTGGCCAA | 0.549
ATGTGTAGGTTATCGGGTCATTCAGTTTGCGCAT | 3.13
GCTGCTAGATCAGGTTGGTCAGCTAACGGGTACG | -0.876

Consider the additional sequence presented here.
[Q] Using the record for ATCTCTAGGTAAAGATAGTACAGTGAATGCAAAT , report its PBM binding z-score.
[A] 1.08
